# subjectOfTest: reTAPON1-LIKE (Trichoderma atroviride, UniProt A0A4D6GQM1)
# Construct: 30-aa signal peptide removed (438-residue ORF, 1317 bp), N-terminal GST tag kept (pGEX-4T-1), E. coli Origami B (DE3), about 71 kDa fusion
# Assay type: biochemical
# testParameters: 25 °C
readout: Km (µM)
Give bare numbers, in µM.

Take a look at these entries with their results.
compound | units | assayValue
COP(=O)(OC)OC=C(Cl)Cl [Dichlorvos, 2,2-dichlorovinyl dimethyl phosphate] | µM | 230
CCOP(=O)(OCC)Oc1nc(Cl)c(Cl)cc1Cl | µM | 320
COC(=O)C=C(C)OP(=O)(OC)OC | µM | 440
CCOC(=O)CC(SP(=O)(OC)OC)C(=O)OCC (centres unmarked) | µM | 720

Now for a further compound.
What Km value was documented for this compound, CNC(=O)CSP(=O)(OC)OC [Omethoate] ?
790
